The reader will find reported Ki values listed item by item below.
Target: CRF1 receptors (Homo sapiens)
Construct: endogenous in cells; host or cells: IMR-32 cells, transformed with 2.5 µM 5'-bromo-2'-deoxyuridine for 10 days; membrane preparation
Sequence (P34998 24-415): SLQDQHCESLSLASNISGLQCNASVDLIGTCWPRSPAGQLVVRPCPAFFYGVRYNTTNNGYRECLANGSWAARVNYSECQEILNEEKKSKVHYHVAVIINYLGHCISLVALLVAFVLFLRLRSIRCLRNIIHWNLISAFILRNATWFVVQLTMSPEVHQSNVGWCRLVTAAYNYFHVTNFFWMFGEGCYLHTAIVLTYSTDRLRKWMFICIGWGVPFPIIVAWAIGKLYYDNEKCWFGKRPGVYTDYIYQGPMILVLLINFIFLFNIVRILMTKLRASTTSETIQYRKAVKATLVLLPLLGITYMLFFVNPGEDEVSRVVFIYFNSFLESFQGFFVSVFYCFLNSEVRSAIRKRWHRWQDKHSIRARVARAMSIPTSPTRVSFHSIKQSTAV
Experiment: CRF1 receptor radioligand binding assay ([125I]-oCRF competition, IMR-32 cell membranes)
Conditions: IMR-32 cell membranes, [125I]-oCRF 100 pM; read-out: Ki (CRF-1R)
measurement kind: Ki

> print(dat)
                                    compound  experimental.result
 1  CCCN(CCC)C(=O)c1c(CC)nc2n(-c3ccc(Cl)cc3Cl)c(Cl)cn12              < 10 nM
 2  Cc1cc(C)c(N2CCCn3c2nc(C(F)(F)F)c3CN2CCCC(C)C2)c(Cl)c1 (centres unmarked)            < 1000 nM
 3  C=CCN(CCC)Cc1c(C(F)(F)F)nc2n1CCCN2c1c(C)cc(C)cc1Cl             < 100 nM
 4  CCCN(CCC1CC1)Cc1c(C(F)(F)F)nc2n1CCCN2c1c(C)cc(C)cc1Cl            < 1000 nM
 5  C=CCN(CCC)Cc1c(C(F)(F)F)nc2n1CCCN2c1c(C)cc(C)cc1C             < 100 nM
 6  CCCN(CCC1CC1)C(=O)c1c(CC)nc2n1CCN2c1c(C)cc(C)cc1C            < 1000 nM
 7  Cc1cc(C)c(N2CCCn3c2nc(C(F)(F)F)c3CN(CCc2ccccc2)CCC(F)(F)F)c(Cl)c1            < 1000 nM
 8  CCc1nc2n(c1C(=O)N(CC)CCC1CC1)CCN2c1c(C)cc(C)cc1C            < 1000 nM
 9  C=CCN(CC=C)Cc1c(CC)nc2n(-c3c(C)cc(C)cc3C)c3ncccc3n12            < 1000 nM
10  CCc1nc2n(c1C(=O)N(CC1CC1)CC(F)(F)F)CCN2c1c(C)cc(C)cc1C             < 100 nM
11  Cc1cc(C)c(-n2c(Cl)cn3c(CN(CCc4ccccc4)CC(F)(F)F)c(C(F)(F)F)nc23)c(C)c1            < 1000 nM
12  CCCN(Cc1c(C(F)(F)F)nc2n1CCCN2c1c(C)cc(C)cc1C)CC1CCC1             < 100 nM
13  Cc1cc(C)c(-n2c3ncccc3n3c(CN(CC4CC4)CC(F)(F)F)c(C(F)(F)F)nc23)c(C)c1             < 100 nM
14  Cc1cc(C)c(N2CCCn3c2nc(C(F)(F)F)c3CN2CCC(C)CC2)c(C)c1            < 1000 nM
15  Cc1cc(C)c(N2CCCn3c2nc(C(F)(F)F)c3CN2CCC(C)CC2)c(Cl)c1            < 1000 nM
16  CCc1nc2n(c1C(=O)N(CCc1ccccc1)CCC(F)(F)F)CCN2c1c(C)cc(C)cc1C           < 10000 nM
17  CCCN(Cc1ccccc1)Cc1c(C(F)(F)F)nc2n(-c3c(C)cc(C)cc3C)c3ccccc3n12           < 10000 nM
18  CCc1nc2n(-c3ccc(Cl)cc3Cl)c(Cl)cn2c1C(=O)N(CC1CC1)CC(F)(F)F              < 10 nM
19  CCCN(CCC1CC1)Cc1c(CC)nc2n(-c3c(C)cc(C)cc3C)c3ncccc3n12            < 1000 nM
20  Cc1cc(C)c(-n2c(Cl)cn3c(CN(Cc4ccc(F)cc4)CC(F)(F)F)c(C(F)(F)F)nc23)c(C)c1            < 1000 nM
21  CCc1nc2n(-c3ccc(Cl)cc3Cl)c(Cl)cn2c1CN(CC1CC1)CC(F)(F)F             < 100 nM
22  CCc1nc2n(-c3c(C)cc(C)cc3C)c(Cl)cn2c1C(=O)N(CC)CC1CC1              < 10 nM
23  Cc1cc(C)c(N2CCCn3c2nc(C(F)(F)F)c3CN(CCC(F)(F)F)Cc2ccc(Cl)cc2)c(C)c1             < 100 nM
24  CCCCN(CC)C(=O)c1c(CC)nc2n1CCN2c1c(C)cc(C)cc1C            < 1000 nM
25  CCCN(CC1CC1)C(=O)c1c(C)nc2n(-c3c(C)cc(C)cc3C)c3ccccc3n12            < 1000 nM
26  Cc1cc(C)c(N2CCCn3c2nc(C(F)(F)F)c3CN(CCC2CC2)CC(F)(F)F)c(C)c1            < 1000 nM
27  Cc1cc(C)c(-n2c3ccccc3n3c(CN(CC4CC4)CC(F)(F)F)c(C(F)(F)F)nc23)c(C)c1             < 100 nM
28  Cc1cc(C)c(N2CCCn3c2nc(C(F)(F)F)c3CN(C)Cc2ccccc2)c(C)c1            < 1000 nM
29  Cc1cc(C)c(-n2c3ncccc3n3c(CN(CCC(F)(F)F)CC4CC4)c(C(F)(F)F)nc23)c(C)c1             < 100 nM
30  CCc1nc2n(c1C(=O)N(CCC(F)(F)F)Cc1ccccc1)CCN2c1c(C)cc(C)cc1C            < 1000 nM
31  CCCN(Cc1c(C(F)(F)F)nc2n1CCCN2c1c(C)cc(C)cc1Cl)CC1CCC1            < 1000 nM
32  FC(F)(F)CCN(Cc1c(C(F)(F)F)nc2n(-c3ccc(Cl)cc3Cl)c3ccccc3n12)CC1CC1           < 10000 nM
